Molecular target: T1, CRBN, Q96SW2;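 note: pooled lentiviral library of zinc finger degron-EGFP fusions in mCherry-positive Jurkat cells, FACS-sorted after compound exposure, with degron abundance counted by next-generation sequencing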
T1 chain: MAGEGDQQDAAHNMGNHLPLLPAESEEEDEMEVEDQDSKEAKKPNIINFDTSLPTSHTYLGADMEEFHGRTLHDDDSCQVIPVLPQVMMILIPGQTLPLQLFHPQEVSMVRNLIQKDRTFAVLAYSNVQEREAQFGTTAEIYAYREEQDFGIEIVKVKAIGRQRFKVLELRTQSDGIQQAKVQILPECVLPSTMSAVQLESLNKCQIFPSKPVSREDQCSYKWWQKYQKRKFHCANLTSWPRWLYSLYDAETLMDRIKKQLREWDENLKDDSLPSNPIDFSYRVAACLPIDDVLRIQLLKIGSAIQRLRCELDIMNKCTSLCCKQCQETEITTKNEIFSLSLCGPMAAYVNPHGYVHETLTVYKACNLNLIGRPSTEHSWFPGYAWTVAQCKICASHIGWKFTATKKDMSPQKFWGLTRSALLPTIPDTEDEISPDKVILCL
Experiment: log2 fold change of degron read counts, EGFP-low vs EGFP+ sorted cells (limma voom), compound-induced degradation; higher = more compound-induced degradation of the degron-EGFP fusion; degrons are variants of IKZF1/3 zinc finger 2; compound dose not given here
Settings: Jurkat; 18 h; compound: compound 22 (5-morpholino-thalidomide)
Over roughly 8,300 sequences, “log2 fold change of degron read counts, EGFP-low vs EGFP+ sorted cells (limma voom), compound-induced degradation” has its median near -1.1; the highest 2% begin near 3.2. The sample holds the highest values, similar sequences and a random draw of the others, so the mix is not that of the screen.
Where log2 fold change of degron read counts equals or exceeds 2, the correct label is MET; where it does not, the label is NOT MET.

- Sequence content: "LCCPICGFVCTQKGNLLRHIKL [46L_47C_49P_50I_52G_53F_54V_55C_67L_, Q9UKT9]"
  Cat: "NOT MET"
- Sequence content: "FWCPVCGANFTQKGNLLRHIKL [46F_47W_49P_50V_52G_53A_54N_55F_67L_, Q9UKT9]"
  Cat: "MET"
- Sequence content: "FGCPICGARFTQKGNLLRHIKL [46F_47G_49P_50I_52G_53A_54R_55F_67L_, Q9UKT9]"
  Cat: "MET"
- Sequence content: "FWCNICGANFTQKGNLLRHIKL [46F_47W_49N_50I_52G_53A_54N_55F_67L_, Q9UKT9]"
  Cat: "MET"
- Sequence content: "FWCPICGARFTQKGNLLRHIKL [46F_47W_49P_50I_52G_53A_54R_55F_67L_, Q9UKT9]"
  Cat: "MET"
- Sequence content: "FMCEQCGAPFTQKGNLLRHIKL [46F_47M_49E_50Q_52G_53A_54P_55F_67L_, Q9UKT9]"
  Cat: "NOT MET"
- Sequence content: "FMCPVCGANFTQKGNLLRHIKL [46F_47M_49P_50V_52G_53A_54N_55F_67L_, Q9UKT9]"
  Cat: "NOT MET"
- Sequence content: "FRCPVCGAPFTQKGNLLRHIKL [46F_47R_49P_50V_52G_53A_54P_55F_67L_, Q9UKT9]"
  Cat: "MET"
- Sequence content: "FSCPICGARFTQKGNLLRHIKL [46F_47S_49P_50I_52G_53A_54R_55F_67L_, Q9UKT9]"
  Cat: "MET"
- Sequence content: "LMCPICGFVCTQKGNLLRHIKL [46L_47M_49P_50I_52G_53F_54V_55C_67L_, Q9UKT9]"
  Cat: "NOT MET"
- Sequence content: "LYCPICGFVCTQKGNLLRHIKL [46L_47Y_49P_50I_52G_53F_54V_55C_67L_, Q9UKT9]"
  Cat: "MET"
- Sequence content: "FVCEICGRLFTQKGNLLRHIKL [46F_47V_49E_50I_52G_53R_54L_55F_67L_, Q9UKT9]"
  Cat: "NOT MET"
- Sequence content: "FVCPVCGANFTQKGNLLRHIKL [46F_47V_49P_50V_52G_53A_54N_55F_67L_, Q9UKT9]"
  Cat: "MET"
- Sequence content: "LQCPICGFVCTQKGNLLRHIKL [46L_47Q_49P_50I_52G_53F_54V_55C_67L_, Q9UKT9]"
  Cat: "MET"
- Sequence content: "FWCNQCGHQFTQKGNLLRHIKL [46F_47W_49N_50Q_52G_53H_54Q_55F_67L_, Q9UKT9]"
  Cat: "NOT MET"
- Sequence content: "FRCNVCGAPFTQKGNLLRHIKL [46F_47R_49N_50V_52G_53A_54P_55F_67L_, Q9UKT9]"
  Cat: "MET"
- Sequence content: "FTCSVCGHMFTQKGNLLRHIKL [46F_47T_49S_50V_52G_53H_54M_55F_67L_, Q9UKT9]"
  Cat: "NOT MET"
- Sequence content: "FWCEICGRFFTQKGNLLRHIKL [46F_47W_49E_50I_52G_53R_54F_55F_67L_, Q9UKT9]"
  Cat: "NOT MET"
- Sequence content: "FSCPICGALFTQKGNLLRHIKL [46F_47S_49P_50I_52G_53A_54L_55F_67L_, Q9UKT9]"
  Cat: "NOT MET"
- Sequence content: "FQCPICGALFTQKGNLLRHIKL [46F_47Q_49P_50I_52G_53A_54L_55F_67L_, Q9UKT9]"
  Cat: "NOT MET"
- Sequence content: "FQCPVCGAPFTQKGNLLRHIKL [46F_47Q_49P_50V_52G_53A_54P_55F_67L_, Q9UKT9]"
  Cat: "MET"
- Sequence content: "FFCNQCGRKFTQKGNLLRHIKL [46F_47F_49N_50Q_52G_53R_54K_55F_67L_, Q9UKT9]"
  Cat: "NOT MET"
- Sequence content: "LTCPICGFVCTQKGNLLRHIKL [46L_47T_49P_50I_52G_53F_54V_55C_67L_, Q9UKT9]"
  Cat: "NOT MET"
- Sequence content: "FECNICGANFTQKGNLLRHIKL [46F_47E_49N_50I_52G_53A_54N_55F_67L_, Q9UKT9]"
  Cat: "NOT MET"
- Sequence content: "FKCPICGHRFTQKGNLLRHIKL [46F_47K_49P_50I_52G_53H_54R_55F_67L_, Q9UKT9]"
  Cat: "NOT MET"
- Sequence content: "FLCPICGARFTQKGNLLRHIKL [46F_47L_49P_50I_52G_53A_54R_55F_67L_, Q9UKT9]"
  Cat: "NOT MET"
- Sequence content: "FYCNVCGAEFTQKGNLLRHIKL [46F_47Y_49N_50V_52G_53A_54E_55F_67L_, Q9UKT9]"
  Cat: "NOT MET"
